Target: T1, human IL-11 (human, UniProt P20809 22-199)
T1 sequence: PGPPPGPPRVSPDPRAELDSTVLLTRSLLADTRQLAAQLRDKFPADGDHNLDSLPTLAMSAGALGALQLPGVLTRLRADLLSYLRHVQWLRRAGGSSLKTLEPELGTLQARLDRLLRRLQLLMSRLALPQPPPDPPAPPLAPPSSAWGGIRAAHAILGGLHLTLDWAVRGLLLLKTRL
Experiment: cell-based or functional assay
measurementType: IC50, RGA 2 (nM)
# value in nM; strip the unit string

Some binders with known IC50, RGA 2 results, for comparison:
# binder, val
measured = [
    ("TPP-31294 (antibody, IgG4, V domains shown, hIgG4 SPLE, lambda) VH: EVQLLESGGGLVQPGGSLRLSCAASGFTFSHYDMNWLRQAPGKGLEWVAVISYDGSNKFYADFVKGRFTISRDNSKNTLYLQMNSLRAEDTAVYYCARTPGSHFDYWGQGTLVTVSS VL: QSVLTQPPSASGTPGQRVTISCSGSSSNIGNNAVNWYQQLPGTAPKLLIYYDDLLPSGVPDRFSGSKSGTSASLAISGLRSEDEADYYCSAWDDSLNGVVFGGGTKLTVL", 38),
    ("TPP-31312 (antibody, IgG4, V domains shown, also called WT antibody; chimeric antibody) VH: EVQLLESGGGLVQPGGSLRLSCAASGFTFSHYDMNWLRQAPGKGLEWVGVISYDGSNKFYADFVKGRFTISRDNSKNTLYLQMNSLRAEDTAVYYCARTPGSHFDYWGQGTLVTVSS VL: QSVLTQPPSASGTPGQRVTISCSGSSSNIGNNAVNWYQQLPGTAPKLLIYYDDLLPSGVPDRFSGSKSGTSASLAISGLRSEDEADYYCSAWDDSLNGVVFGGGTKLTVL", 80),
    ("TPP-31302 (antibody, IgG4, V domains shown) VH: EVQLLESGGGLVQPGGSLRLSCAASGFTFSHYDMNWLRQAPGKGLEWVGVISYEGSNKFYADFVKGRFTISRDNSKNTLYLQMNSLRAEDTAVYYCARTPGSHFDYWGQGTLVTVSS VL: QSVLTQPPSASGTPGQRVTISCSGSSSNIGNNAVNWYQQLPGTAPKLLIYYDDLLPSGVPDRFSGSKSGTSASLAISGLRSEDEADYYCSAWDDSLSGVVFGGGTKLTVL", 7.13),
]

--- query ---
Exam item: Please report the recorded IC50, RGA 2 for TPP-31287 (antibody, IgG4, V domains shown) VH: EVQLVESGGGLVQPGGSLRLSCAASGFTFSHYDMNWLRQAPGKGLEWVGVISYDGSNKFYADFVKGRFTISRDNSKNTLYLQMNSLRAEDTAVYYCARTPGSHFDYWGQGTLVTVSS VL: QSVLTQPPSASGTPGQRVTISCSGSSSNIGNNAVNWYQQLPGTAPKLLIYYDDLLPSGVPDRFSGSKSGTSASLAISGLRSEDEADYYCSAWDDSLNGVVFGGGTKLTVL .
Marked response: 56
